Provenance of the data: ChEMBL document CHEMBL1157539

Test system: Plasmodium falciparum
Assay: GSK_TCMDC: Inhibition of Plasmodium falciparum 3D7 in whole erythrocytes, using parasite LDH activity as an index of growth.
Assay type: functional, organism-based
Conditions: Plasmodium falciparum, 3D7
measurementName: XC50 (µM)
Your answer should be a plain number; it is taken to be in µM.

molecule Cc1cccc2nc(-c3cccc(-c4ccc(NC(=O)Nc5ccc6c(c5)OCO6)cc4)c3)[nH]c12 , XC50 observed: 0.145

New cases:
molecule Cc1ccc(O)cc1Nc1ccnc2ccc(-c3cccc(CN(C)C)c3)cc12 , XC50 observed: 0.515

molecule O=C(/C=C/c1ccccc1O)N1CCC(CCN2CCC(c3c[nH]c4ccccc34)CC2)CC1 , XC50 observed: 1.34

molecule C#CCOc1ccccc1CN1CCC(N2CCc3cc(NC(=O)c4cc(C)on4)ccc32)C1 (centres undefined) , XC50 observed: 0.675

molecule CN(Cc1cccc(O)c1)C1CCN(c2cc(NC(=O)c3ccc(F)cc3)ccn2)C1 (centres undefined) , XC50 observed: 1.15

molecule O=c1c(NCCCN(Cc2ccc(F)cc2)c2ccccn2)c(NCc2cccnc2)c1=O , XC50 observed: 0.0617

molecule O=C(Nc1ccc(I)cc1)Nc1ccc(Cn2ncc(N3CCCNCC3)c(Cl)c2=O)cc1 , XC50 observed: 1.12

* * *

System: Plasmodium falciparum
Test: GSK_TCMDC: Inhibition of Plasmodium falciparum 3D7 in whole erythrocytes, using parasite LDH activity as an index of growth.
Type: functional, organism-based
Details: Plasmodium falciparum, 3D7
Mark Fulfilled only when XC50 stays strictly below 800 nM. Values equal to the cut-off are Not fulfilled.

Consider the following illustrative entries.
Please determine if CC(C)(C)c1nn(-c2ccccc2)c2[nH]c(=O)c(CNCCc3ccccc3)cc12 is below 800 nM in terms of XC50. Not fulfilled

Please determine if C=C[C@]1(C)C[C@@H](OC(=O)CNC[C@@H](O)CN2C[C@H](c3ccnc4ccc(OC)nc34)OC2=O)[C@@]2(C)[C@@H]3C(=O)CC[C@@]3(CC[C@@H]2C)[C@@H](C)[C@@H]1O is below 800 nM in terms of XC50. Not fulfilled

Please determine if CCN(C)C(=O)n1ncc2c3c(N)nc(N)nc3ccc21 is below 800 nM in terms of XC50. Fulfilled

Now look at this entry.
Please determine if Nc1nc(N)c2c(ccc3c2ccn3C2C=CCCC2)n1 (stereo not given) is below 800 nM in terms of XC50. Fulfilled

* * *

Tested on: Plasmodium falciparum
Test: GSK_TCMDC: Inhibition of Plasmodium falciparum 3D7 in whole erythrocytes, using parasite LDH activity as an index of growth.
Assay type: functional, organism-based
Conditions: Plasmodium falciparum, 3D7
Each record here notes measured XC50.

compound O=C(Nc1ccc(Cl)cc1F)NC1CCN(CCCCCNC(=O)C2CC2c2ccc(Cl)c(Cl)c2)CC1 (stereo not given) , XC50 observed: 510 nM

New cases:
compound O=C(Nc1cc(Cl)cc(Cl)c1)Nc1ccccc1C(=O)NC1CCCCC1 , XC50 observed: 749 nM

compound CCCCCCCN1CCC(CC(=O)Nc2ccnc3ccc(OC)cc23)C(CC)C1 (stereo not given) , XC50 observed: 593 nM

compound Cc1cc(NCCc2ccccc2)nc(NC(=N)Nc2cccc(F)c2)n1 , XC50 observed: 899 nM

compound COc1ccc(C(=O)COc2cccc(/C=C/C(=O)O)c2)cc1OC , XC50 observed: 1320 nM

compound Cn1ccc(C(=O)Nc2ccc3c(c2)CN(Cc2ccc(N4CCCC4)o2)CCC3)n1 , XC50 observed: 1310 nM

compound COc1ccc2nccc([C@@H](O)CN3CCC(NCc4cc5ccccc5nn4)CC3)c2c1 , XC50 observed: 1200 nM

compound CCC(CC)C(CC(=O)NC(C)(C)CCc1ccccc1OC)Nc1ccc(C#N)c2ccccc12 (stereo not given) , XC50 observed: 796 nM

compound O=C(Nc1ccc([N+](=O)[O-])cc1Cl)c1cc(Br)cc(Cc2ccccc2)c1O , XC50 observed: 1290 nM

compound COc1ccc(NC(C)C(=O)Nc2ccc(Br)cc2)cc1S(=O)(=O)N1CCCCC1 (stereo not given) , XC50 observed: 221 nM

* * *

Tested on: Plasmodium falciparum
Assay: GSK_TCMDC: Inhibition of Plasmodium falciparum 3D7 in whole erythrocytes, using parasite LDH activity as an index of growth.
Type: functional, organism-based
Details: Plasmodium falciparum, 3D7
Mark Met only when XC50 stays strictly below 500 nM. Values equal to the cut-off are Not met.

Consider the following illustrative entries.
Please determine if FC(F)(F)c1cccc(Nc2nc3nonc3nc2NC2C3CC4CC(C3)CC2C4)c1 (stereo not given) is below 500 nM in terms of XC50. Not met

Please determine if COc1cc2nc(N3CCC(CNC(=O)/C=C/c4cccc(C)c4)CC3)nc(N)c2cc1OC is below 500 nM in terms of XC50. Not met

New cases:
Please determine if Nc1nonc1-c1nc2c(-c3cccc(Cl)c3)nccc2n1CCCNC(=O)Cc1ccc(Cl)cc1 is below 500 nM in terms of XC50. Met

Please determine if Cc1c(N)ccc2[nH]c(-c3ccc(N)cc3)nc12 is below 500 nM in terms of XC50. Not met

* * *

Test system: Plasmodium falciparum
Assay: GSK_TCMDC: Inhibition of Plasmodium falciparum 3D7 in whole erythrocytes, using parasite LDH activity as an index of growth.
Type: functional, organism-based
Conditions: Plasmodium falciparum, 3D7
Mark T only when XC50 stays strictly below 700 nM. Values equal to the cut-off are F.

Please determine if Cc1ccccc1C1CCN(C2CCC(NC(=O)/C=C/c3ccc(C(F)(F)F)cc3)CC2)CC1 (stereo not given) is below 700 nM in terms of XC50. F

Please determine if Cc1cc(N2CCCC2)nc(Nc2ccc(NC(=O)c3ccco3)cc2)n1 is below 700 nM in terms of XC50. F

Please determine if OC1CCCN(Cc2cccc(-c3ccc(-c4nc5cc(F)ccc5[nH]4)cc3)c2)C1 (stereo not given) is below 700 nM in terms of XC50. F

Please determine if c1ccc(COc2ccc(Nc3ncnc4cnc(-c5ccc(CNc6cccnc6)o5)cc34)cc2)cc1 is below 700 nM in terms of XC50. F

New cases:
Please determine if CNC(=O)c1ccc2nc(-c3ccc(-c4ccccc4)cc3)n(CC3CCN(CC4CCCC4)CC3)c2c1 is below 700 nM in terms of XC50. T

Please determine if CCN(CC)CCOC(=O)c1ccc(NC(=O)c2cc(-c3ccc(C)cc3)nc3ccccc23)cc1 is below 700 nM in terms of XC50. F

Please determine if Cc1ccc(NC(=O)c2ccc(Cl)c(Cl)c2)cc1-c1ccc(C(=O)Nc2ccncc2)cc1 is below 700 nM in terms of XC50. T

Please determine if CCN(CC)CCCC(C)Nc1c(-c2ccc(OC)cc2)cnc2ccccc12 (stereo not given) is below 700 nM in terms of XC50. F

Please determine if CCOc1cc(Cc2cnc(N)nc2N)cc(OC)c1OC is below 700 nM in terms of XC50. F

Please determine if COc1ccc2ncc(F)c(CCN3CCC(NCc4cc(C)c5c(c4)OCCO5)CC3)c2n1 is below 700 nM in terms of XC50. T

* * *

System: Plasmodium falciparum
Test: GSK_TCMDC: Inhibition of Plasmodium falciparum 3D7 in whole erythrocytes, using parasite LDH activity as an index of growth.
Format: functional, organism-based
Settings: Plasmodium falciparum, 3D7
measurementName: XC50 (nM)
Your answer should be a plain number; it is taken to be in nM.

molecule CCc1cc2c(Sc3nc4ccccc4[nH]3)ncnc2s1 , XC50 observed: 823

New cases:
molecule CCc1ccc(CN2CCC(CN(c3ccc(N4CCOCC4)c(F)c3)S(=O)(=O)c3ccc(C(C)(C)CC)cc3)CC2)cc1 , XC50 observed: 706

molecule Cc1cc(Cc2ccc(S(=O)(=O)c3cc4c(cc3O)CCN(C)CC4)cc2)ccc1Cl , XC50 observed: 911

molecule Cc1ccc2nc(C)cc(NC(=O)Nc3ccc(N(C)C)cc3)c2c1 , XC50 observed: 541

molecule CN(C)Cc1ccc(-c2ccc3c(Nc4ccc(Cl)cc4F)ccnc3c2)o1 , XC50 observed: 241

* * *

Test system: Plasmodium falciparum
Assay: GSK_TCMDC: Inhibition of Plasmodium falciparum 3D7 in whole erythrocytes, using parasite LDH activity as an index of growth.
Format: functional, organism-based
Details: Plasmodium falciparum, 3D7
Each record here notes measured log10 of XC50.
Note: values are log10 of XC50 expressed in nM.

compound O=c1n[n+](C2CCCCC2)[n-]o1 , log10 of XC50 observed: 2.97

compound CCC(CC(NCCCCNC(=O)c1ccc(NC(=O)c2ccc(Cl)cc2)cc1)c1ccccc1)c1ccccc1OC (stereo not given) , log10 of XC50 observed: 2.90

compound CCCCc1nc2nc(N)nc(N)c2cc1CCC , log10 of XC50 observed: 2.49

compound CCC[C@@H]([C@@H](CC1CCCCC1)C(=O)N[C@@H](CCCCNS(C)(=O)=O)C(=O)Nc1nccs1)N(O)C=O , log10 of XC50 observed: 1.91

compound N#CCc1ccc(Nc2nccc(Nc3ccc(Oc4ccccc4)cc3)n2)cc1 , log10 of XC50 observed: 2.91

compound Oc1ccc2ccccc2c1C=NNc1nc(=Nc2ccccc2)nc(N2CCOCC2)[nH]1 , log10 of XC50 observed: 2.95

compound CCc1cc(OC)c(C(=O)NC2CCN(C[C@H](O)c3ccnc4ccc(OC)cc34)CC2)cc1Br , log10 of XC50 observed: 2.91

compound COc1ccc(-c2cccc(NC(=O)c3cccc(C#N)c3)c2)cc1CN(C)CCN(C)C , log10 of XC50 observed: 2.50

compound Cc1cccc2nc(-c3ccc(-c4cccc(CN5CCCCC5)c4)s3)[nH]c12 , log10 of XC50 observed: 2.67

Now turn to the next compound.
compound CCN(CCNC(=O)C1CCN(c2cc(-c3cccc(C)c3)ncn2)CC1)Cc1ccccc1 , log10 of XC50 observed: 2.23
